Activity: recorded values
- Tested on: Cortical neurone
- Assay protocol: Cytotoxicity against primary C57BL/6J E14-17 mouse Cortical neuron assessed as decrease in cell viability at 10 uM incubated for 24 hrs by CCK-8 assay relative to control
- Type: toxicity, cell-based

[
  {
    "Compound": "CN[C@H]1CC[C@@H](c2ccc(Cl)c(Cl)c2)c2ccccc21 (racemic) [SERTRALINE]",
    "Activity": "92.98%"
  },
  {
    "Compound": "N[C@@H]1CC[C@@H](c2ccc(Cl)c(Cl)c2)c2ccccc21 (relative stereo)",
    "Activity": "95.38%"
  },
  {
    "Compound": "Clc1ccc(CN[C@@H]2CC[C@@H](c3ccc(Cl)c(Cl)c3)c3ccccc32)cc1Cl",
    "Activity": "105.41%"
  },
  {
    "Compound": "CN[C@@H]1CC[C@@H](c2ccc(Cl)c(Cl)c2)c2ccccc21 (racemic)",
    "Activity": "92.08%"
  },
  {
    "Compound": "CCCCCCN[C@@H]1CC[C@@H](c2ccc(Cl)c(Cl)c2)c2ccccc21 (relative stereo)",
    "Activity": "113.14%"
  },
  {
    "Compound": "O=C(CCCCl)N[C@@H]1CC[C@@H](c2ccc(Cl)c(Cl)c2)c2ccccc21 (relative stereo)",
    "Activity": "84.35%"
  },
  {
    "Compound": "CC(N[C@@H]1CC[C@@H](c2ccc(Cl)c(Cl)c2)c2ccccc21)c1ccccc1 (stereo partly drawn)",
    "Activity": "45.32%"
  },
  {
    "Compound": "CC(C)CN[C@@H]1CC[C@@H](c2ccc(Cl)c(Cl)c2)c2ccccc21 (relative stereo)",
    "Activity": "73.99%"
  }
]
